Tested on: SF-268 CNS
Test: NCI tumour cell line growth inhibition, 48 h
Some molecules, each annotated with its measured TGI.
measurement type: TGI

molecule=COc1cccc(O)c1-c1cc(=O)c2c(O)c(OC)c(OC)c(OC)c2o1 measurement_type=TGI measured_value="> 100 µM"
molecule=O=[N+]([O-])c1cccc(-c2ccc([C@H]3CC(c4ccc(Cl)cc4)=NN3)o2)c1 measurement_type=TGI measured_value="> 100 µM"
molecule=c1c[nH]c(CN2CCN(Cc3ncc[nH]3)CC2)n1 measurement_type=TGI measured_value="> 100 µM"
molecule=CCOP(=O)(OCC)/C(F)=C/c1ccc(F)cc1 measurement_type=TGI measured_value="> 100 µM"
molecule=NS(=O)(=O)c1ccc(NNc2c3ccccc3nc3c(C(=O)Nc4ccc(S(N)(=O)=O)cc4)cccc23)cc1 measurement_type=TGI measured_value="98.4 µM"
molecule=Cc1c(Cl)ccc2[s+]snc12 measurement_type=TGI measured_value="62.8 µM"
molecule=C[N+](C)(C)CC(=O)N/N=C\c1c(O)ccc2ccccc12 measurement_type=TGI measured_value="69.8 µM"
molecule="C/C=C/C(C/C=C(\\C)CO[Si](C)(C)C(C)(C)C)O[Si](C)(C)C(C)(C)C (stereo unspecified)" measurement_type=TGI measured_value="> 100 µM"
molecule=O=C(CNC(=O)c1cccc2ccccc12)Nc1ccccc1Oc1ccc(O)cc1 measurement_type=TGI measured_value="> 25 µM"
molecule="CC1(C)OC2OC(/C=C/[N+](=O)[O-])C3OC(C)(C)OC3C2O1 (stereo unspecified)" measurement_type=TGI measured_value="39.5 µM"
molecule=CC(C)CCNC(=O)c1ccc(CNC(=O)/C=C/c2ccc3c(c2)-c2ccccc2C3)cc1 measurement_type=TGI measured_value="> 100 µM"

Values from PubChem BioAssay (NCI)
